Target: Proteinase-activated receptor 1 (Homo sapiens) (UniProt P25116)
Sequence (P25116 whole entry): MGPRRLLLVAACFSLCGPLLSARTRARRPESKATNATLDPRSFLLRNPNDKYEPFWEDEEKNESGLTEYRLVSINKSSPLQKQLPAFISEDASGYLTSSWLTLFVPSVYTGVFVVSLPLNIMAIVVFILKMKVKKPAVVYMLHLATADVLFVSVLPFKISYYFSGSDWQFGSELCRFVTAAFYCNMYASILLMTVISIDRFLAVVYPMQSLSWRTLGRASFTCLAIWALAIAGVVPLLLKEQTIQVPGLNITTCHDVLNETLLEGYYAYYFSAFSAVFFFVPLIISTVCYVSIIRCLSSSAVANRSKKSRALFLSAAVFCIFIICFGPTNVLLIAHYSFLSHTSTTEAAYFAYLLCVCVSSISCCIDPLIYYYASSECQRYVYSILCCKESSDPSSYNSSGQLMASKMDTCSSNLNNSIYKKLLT
Assay: Inhibition of SFLLRN-NH2-stimulated PAR1-mediated platelet activation in […] assessed as surface expression of P-selectin at 10 uM after 20 mins by flow cytometry
Assay type: cell-based
Output fulfilled for inhibition not less than 70%; output not fulfilled otherwise.

Use the examples below as a reference point.
In [3]: df
Out[3]:
                          structurenotation            cat
0      CCCC(=O)Nc1cccc(NC(=O)c2ccc(C)cc2)c1  not fulfilled
1     Cc1ccccc1C(=O)Nc1cccc(NC(=O)CC(C)C)c1      fulfilled
2     CC(C)CNC(=O)c1coc(NC(=O)c2ccccc2Br)n1  not fulfilled
3  Cc1ccccc1C(=O)Nc1cccc(NC(=O)Cc2ccc(Cl)cc2)c1  not fulfilled
4    CCCC(=O)Nc1cccc(N(C)C(=O)c2ccccc2Br)c1  not fulfilled
5  CCCC(=O)Nc1cccc(NC(=O)c2ccc(C(F)(F)F)cc2)c1  not fulfilled
6   CCCC(=O)Nc1cccc(NC(=O)c2cccc(Cl)c2Cl)c1      fulfilled
7        CCCC(=O)Nc1cccc(NC(=O)c2ccccc2C)c1      fulfilled

Check this compound for inhibition at or above 70%: `CCS(=O)(=O)N1CCCc2ccc(NC(=O)c3ccccc3Br)cc21`
not fulfilled

Now give it for `CCCC(=O)Nc1ccc(NC(=O)c2ccccc2Br)cc1` too.
not fulfilled

Lookup `CCCCC(=O)Nc1cccc(NC(=O)c2ccccc2Br)c1`
not fulfilled

Entry to check: `CCCC(=O)Nc1cccc(NC(=O)c2ccc(F)cc2Br)c1`
fulfilled

Request: `CCCC(=O)Nc1cccc(NC(=O)c2ccc(F)cc2)c1`
fulfilled

Source: ChEMBL document CHEMBL2046322
